- TEST_DETAILS: in vitro
- Format: cell-based
- STUDY_CONDITIONS: hamster; 2 days; read-out: CC50, BHK-21
MEASURED_ATTRIBUTE: CC50

COc1cccc(S(=O)(=O)NC(=O)c2cc(-c3ccc(C#CCO)s3)c(OC)cc2OC)c1	> 50 µM

Exercise: Look at this compound and give its reported CC50. COc1cc(OC)c(-c2ccc(C#CCO)s2)cc1C(=O)NS(=O)(=O)c1cccc2cccnc12
Key: > 50 µM

* * *

- ASSAYED_SYSTEM: DENV1 FL NS5 (Dengue virus type 1, UniProt P17763)
- Construct: 100 nM DENV FL NS5 protein was added; made in house
- Sequence (P17763 2494-3392): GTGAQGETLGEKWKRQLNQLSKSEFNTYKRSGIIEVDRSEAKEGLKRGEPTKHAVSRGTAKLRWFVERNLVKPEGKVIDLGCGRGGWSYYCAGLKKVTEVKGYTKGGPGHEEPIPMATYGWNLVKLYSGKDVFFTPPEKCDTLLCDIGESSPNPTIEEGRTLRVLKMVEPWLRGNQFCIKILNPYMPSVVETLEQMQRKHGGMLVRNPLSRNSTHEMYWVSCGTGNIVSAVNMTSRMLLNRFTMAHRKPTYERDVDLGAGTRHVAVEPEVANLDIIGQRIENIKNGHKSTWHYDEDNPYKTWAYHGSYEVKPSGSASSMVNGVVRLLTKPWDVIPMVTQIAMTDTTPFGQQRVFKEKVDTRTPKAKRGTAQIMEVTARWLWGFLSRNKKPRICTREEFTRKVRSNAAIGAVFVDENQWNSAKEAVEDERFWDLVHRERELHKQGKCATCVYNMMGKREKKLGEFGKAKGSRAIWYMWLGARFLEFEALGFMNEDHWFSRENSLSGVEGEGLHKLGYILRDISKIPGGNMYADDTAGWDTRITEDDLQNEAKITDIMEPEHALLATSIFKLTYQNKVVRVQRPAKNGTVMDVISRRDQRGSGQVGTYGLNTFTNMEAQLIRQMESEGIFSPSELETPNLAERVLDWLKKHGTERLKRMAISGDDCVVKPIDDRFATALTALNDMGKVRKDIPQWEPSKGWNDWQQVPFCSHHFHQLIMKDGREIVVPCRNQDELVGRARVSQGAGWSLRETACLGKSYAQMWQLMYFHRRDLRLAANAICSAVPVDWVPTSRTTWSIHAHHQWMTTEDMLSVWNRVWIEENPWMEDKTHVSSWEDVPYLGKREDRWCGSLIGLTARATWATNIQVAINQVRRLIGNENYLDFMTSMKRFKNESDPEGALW
- TEST_DETAILS: DENV1 FL NS5 de novo initiation FAPA assay
- Type: biochemical
- STUDY_CONDITIONS: one experiment; read-out: DENV FL NS5 de novo initiation FAPA, IC50, DENV1
Bucketed by reported IC50, buckets being lower band = under 30 nM, central band = from 30 nM up to 7000 nM, upper band = 7000 nM and over

COc1cc(OC)c(-c2ccc(C#CCO)s2)cc1C(=O)NS(=O)(=O)c1ccccc1	central band
COc1cccc(S(=O)(=O)NC(=O)c2cc(-c3ccc(C#CCO)s3)c(OC)cc2C)c1 [Compound 26i]	lower band
COc1ccc(CC(=O)O)cc1-c1ccccc1	upper band
COc1cc(OC)c(-c2ccc(C#CCO)s2)cc1C(=O)NS(=O)(=O)c1cccc2cccnc12	lower band
COc1ccc(CC(=O)O)cc1-c1ccc(Cl)s1	upper band

Exercise: Form field 'band' for COc1cc(C)c(C(=O)NS(=O)(=O)c2ccccc2)cc1-c1ccc(C#CCO)s1
Key: central band

Exercise: Hello team, could you let me know which band the following compound falls into: O=C(O)Cc1cc(CC(=O)O)cc(-c2ccc(C#CCO)s2)c1
Key: central band

Exercise: Entry Nc1nc2c(ncn2[C@@H]2O[C@H](COP(=O)(O)OP(=O)(O)OP(=O)(O)O)C[C@H]2O)c(=O)[nH]1 [3'dGTP, reference compound] belongs to which category?
Key: central band
